Biological target: UniProt P09057
Sequence (P09057 whole entry): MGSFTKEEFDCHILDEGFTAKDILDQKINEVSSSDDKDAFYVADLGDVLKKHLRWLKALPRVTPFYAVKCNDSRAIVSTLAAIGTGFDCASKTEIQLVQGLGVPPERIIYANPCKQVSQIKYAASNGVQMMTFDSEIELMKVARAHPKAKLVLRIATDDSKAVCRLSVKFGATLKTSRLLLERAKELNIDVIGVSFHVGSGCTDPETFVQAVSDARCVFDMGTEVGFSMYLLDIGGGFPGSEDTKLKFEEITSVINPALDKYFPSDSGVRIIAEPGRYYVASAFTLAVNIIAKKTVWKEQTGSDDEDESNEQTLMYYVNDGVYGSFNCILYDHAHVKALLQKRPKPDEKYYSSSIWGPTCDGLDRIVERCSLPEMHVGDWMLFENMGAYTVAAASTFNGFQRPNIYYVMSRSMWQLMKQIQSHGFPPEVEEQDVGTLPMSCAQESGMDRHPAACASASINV
Assay: In vitro inhibitory activity against Ornithine Decarboxylase (ODC) isolated from the livers of thioactamide treated rats.
MEASUREMENT_KIND: Ki (mM)

CC(N)CC(C)CN (mixture of isomers) :: 2.9
CC(N)C(C)CCN (mixture of isomers) :: 3.8
CN(C)CCCCN :: 3
NCCCCN :: 3.3

====

Target: Ornithine decarboxylase (Rattus norvegicus)
Test: In vivo inhibitory activity against Ornithine Decarboxylase (ODC) in H-35 hepatoma cells
Assay type: functional
Set-up: unit not given here
MEASUREMENT_KIND: Activity

CC(N)C(C)CCN (mixture of isomers) :: 75
NCCCCN [PUTRESCINE] :: 90
CC(N)CCC(C)N (single isomer, unassigned; (-)) :: 97
CC(N)CCC(C)N (single isomer, unassigned; (+)) :: 96
CN(C)CCCCN :: 68
CC(N)CC(C)CN (mixture of isomers) :: 85
CC(N)CCC(C)N (centres undefined) :: 90
CNCCCCNC :: 72
CC(N)CCC(C)N (racemic) :: 91
